tested on: Fibroblast; test: Multiplex assay against human fibroblast; assay type: toxicity, cell-based; conditions: 48 h, 10 µM, compound concentration 10 uM, replicate 1
Listing: Population Tubulin-Different-Phenotype (%) of selected compounds
property.name: Population Tubulin-Different-Phenotype (%)

compound	output.unit	measured.value
O=S(=O)(c1ccccc1)c1cnc2c(N3CCNCC3)cccc2c1 [INTEPIRDINE]	%	47
CCCC(CCC)C(=O)O [VALPROIC ACID]	%	18
Cc1nc2ccc(Oc3ccc(F)cc3)cc2c(=O)n1C[C@H]1CCCN(C(C)C)C1.Cl	%	85
C[C@@H]1C[C@H]2[C@@H]3CCC4=CC(=O)C=C[C@]4(C)[C@@]3(F)[C@@H](O)C[C@]2(C)[C@@]1(O)C(=O)CO [DEXAMETHASONE]	%	19
CCCN1CCC[C@@H]2Cc3n[nH]cc3C[C@H]21.Cl [QUINPIROLE HYDROCHLORIDE]	%	31
CN1CCN(c2nc3cc(C(F)(F)F)ccc3n3cccc23)CC1.O=C(O)/C=C\C(=O)O.O=C(O)/C=C\C(=O)O	%	77
Oc1c(CN2CCN(c3ccccn3)CC2)cc(Cl)c2cccnc12	%	38
Cc1ccc(C(C)(O)c2nc3ccccc3s2)c(C)c1 (centres undefined)	%	27
Cc1ccc(/C(=C\CN2CCCC2)c2ccccn2)cc1 [TRIPROLIDINE]	%	35

====

system: Fibroblast; assay: Multiplex assay against human fibroblast; assay type: toxicity, cell-based; details: 48 h, 1 µM, compound concentration 1 uM, replicate 1

structure.as.smiles	Population Mitotic Cells (%)
O=C(O)Cc1ccccc1Nc1c(Cl)cccc1Cl	15%
CN(C)c1ccnc2sc3c(=O)n(N4CCCCCC4)cnc3c12	35%
COc1cc(C(=O)N(CCCc2ccccc2)Cc2ccc(CC(=O)O)cc2)cc(OC)c1C	10%

====

test system: Fibroblast; assay: Multiplex assay against human fibroblast; assay type: toxicity, cell-based; settings: 24 h, 10 µM, compound concentration 10 uM, replicate 1
Returns one of rule met or rule not met; rule met when Population Apoptotic (%) is >= 60%.

compound	target.entity	cat
O=C(O)Cc1ccccc1Nc1c(Cl)cccc1Cl	Fibroblast	rule not met
Cc1nc2ccc(Oc3ccc(F)cc3)cc2c(=O)n1C[C@H]1CCCN(C(C)C)C1.Cl	Fibroblast	rule met
CCOc1c2c(c(OCC)c3ncccc13)CN(c1ccc(CS(=O)(=O)NC(=O)Cc3ccccc3OC)cc1C)C2=O	Fibroblast	rule not met
Cc1ccc(F)cc1C(=O)Nc1ccc(C(=O)N2Cc3cccn3Cc3ccccc32)c(Cl)c1	Fibroblast	rule not met
C[C@H]1[C@H]2CC[C@H]3[C@@H]4CC=C5C[C@@H](N(C)C)CC[C@]5(C)[C@H]4CC[C@]23CN1C	Fibroblast	rule met
CC(C)(C)c1ccc(S(=O)(=O)Nc2ccc(Cl)cc2C(=O)c2cc[n+]([O-])cc2)cc1	Fibroblast	rule met
Cc1ccc(C(C)(O)c2nc3ccccc3s2)c(C)c1 (centres undefined)	Fibroblast	rule not met
CCCN1CCC[C@@H]2Cc3n[nH]cc3C[C@H]21.Cl [QUINPIROLE HYDROCHLORIDE]	Fibroblast	rule met
O=C(O)c1cc2ccccc2c(Cc2c(O)c(C(=O)O)cc3ccccc23)c1O	Fibroblast	rule not met

====

test system: U2OS; test: Multiplex assay against U2OS; format: toxicity, cell-based; settings: human, 24 h, 1 µM, compound concentration 1 uM, replicate 1
property.name: Total Cell Count

compound	target.entity	property.name	measured.value
CN1CCN2c3ncccc3Cc3ccccc3C2C1 (stereo not given) [MIRTAZAPINE]	U2OS	Total Cell Count	340
Cc1ccc(C(C)(O)c2nc3ccccc3s2)c(C)c1 (stereo not given)	U2OS	Total Cell Count	327
O=S(=O)(c1ccccc1)c1cnc2c(N3CCNCC3)cccc2c1 [INTEPIRDINE]	U2OS	Total Cell Count	319
COc1cc(C(=O)N(CCCc2ccccc2)Cc2ccc(CC(=O)O)cc2)cc(OC)c1C	U2OS	Total Cell Count	288
c1cc(OCCCN2CCCCC2)ccc1CN1CCCCC1 [JNJ-5207852]	U2OS	Total Cell Count	287

====

system: HEK-293T; test: Multiplex assay against HEK293T; format: toxicity, cell-based; settings: human, 24 h, 1 µM, compound concentration 1 uM, replicate 1
Here the recorded Population Fragmented Nuclei (%) is given for each entry.

structure.as.smiles	Population Fragmented Nuclei (%)
CN1CCN(c2nc3cc(C(F)(F)F)ccc3n3cccc23)CC1.O=C(O)/C=C\C(=O)O.O=C(O)/C=C\C(=O)O	9
CCCC(CCC)C(=O)O	8
O=C(NCC(=O)N1CC[C@H](N[C@H]2CC[C@@](O)(c3ccc(-c4ncccn4)cn3)CC2)C1)c1cccc(C(F)(F)F)c1	10
COc1c(C)cc(NC(=O)c2nn(Cc3ccc(F)cc3)c3c2CN(C(=O)c2ccc[nH]2)C[C@]3(C)C(N)=O)cc1C	7

====

test system: HEK-293T; assay: Multiplex assay against HEK293T; assay type: toxicity, cell-based; conditions: human, 48 h, 10 µM, compound concentration 10 uM, replicate 2

molecule	target.entity	Population Apoptotic (%)
Cc1ccc(F)cc1C(=O)Nc1ccc(C(=O)N2Cc3cccn3Cc3ccccc32)c(Cl)c1 [LIXIVAPTAN]	HEK-293T	46
Cl.Clc1ccc2nsnc2c1NC1=NCCN1 [TIZANIDINE HYDROCHLORIDE]	HEK-293T	25
COc1c(C)cc(NC(=O)c2nn(Cc3ccc(F)cc3)c3c2CN(C(=O)c2ccc[nH]2)C[C@]3(C)C(N)=O)cc1C	HEK-293T	80
O=C1COc2nccc(-c3ccccc3F)c2CN1Cc1cc(C(F)(F)F)cc(C(F)(F)F)c1	HEK-293T	56
CCCC(CCC)C(=O)O [VALPROIC ACID]	HEK-293T	27
COc1ccc2c(c1)C(C(=O)N(Cc1ccc(N(C)C)cc1)c1ccc(C(C)C)cc1)CCC2.Cl (stereo not drawn)	HEK-293T	36
COc1cc(NC(=O)CCN2CCC(OC(=O)Nc3ccccc3-c3ccccc3)CC2)c(Cl)cc1CNC[C@H](O)c1ccc(O)c2[nH]c(=O)ccc12 [BATEFENTEROL]	HEK-293T	57
CCNC1(C(N)=O)CCN(c2ncnc3c2nc(-c2ccccc2Cl)n3-c2ccc(Cl)cc2)CC1 [OTENABANT]	HEK-293T	70

====

Entries and their Population Mitochondria Different-Phenotype (%)
system: Fibroblast; assay: Multiplex assay against human fibroblast; assay type: toxicity, cell-based; conditions: 48 h, 1 µM, compound concentration 1 uM, replicate 2
property.name: Population Mitochondria Different-Phenotype (%)

compound	measured.value
Cc1ccc(/C(=C\CN2CCCC2)c2ccccn2)cc1	10%
CCNC1(C(N)=O)CCN(c2ncnc3c2nc(-c2ccccc2Cl)n3-c2ccc(Cl)cc2)CC1	18%
CCCn1c(=O)c2[nH]c(C3CCCC3)nc2n(CCC)c1=O	12%
CSCC[C@H](NC=O)C(=O)N[C@@H](CC(C)C)C(=O)N[C@@H](Cc1ccccc1)C(=O)O	8%
Cl.Clc1ccc2nsnc2c1NC1=NCCN1 [TIZANIDINE HYDROCHLORIDE]	8%

====

test system: U2OS; assay: Multiplex assay against U2OS; assay type: toxicity, cell-based; conditions: human, 24 h, 1 µM, compound concentration 1 uM, replicate 1
Measured Population Fragmented Nuclei (%) of individual entries
property.name: Population Fragmented Nuclei (%)

molecule	measured.value
CNC[C@H](O)c1ccc(O)c(O)c1 [EPINEPHRINE]	28%
CSc1ccccc1N1CCN(CCCCCC(=O)NC2CCCc3ccccc32)CC1.Cl (centres undefined)	22%
COc1c(C)cc(NC(=O)c2nn(Cc3ccc(F)cc3)c3c2CN(C(=O)c2ccc[nH]2)C[C@]3(C)C(N)=O)cc1C	16%
C[C@H](NC(=O)c1c(C(F)F)nn(C)c1Oc1cccc(C(F)(F)F)c1)c1ccc(C(=O)O)cc1	20%
CCCn1c(=O)c2[nH]c(C3CCCC3)nc2n(CCC)c1=O	24%
CC1(COc2ccc3c(c2)ncn3-c2ccc3cccc(N4CCC(N)CC4)c3n2)COC1	39%
CCOc1c2c(c(OCC)c3ncccc13)CN(c1ccc(CS(=O)(=O)NC(=O)Cc3ccccc3OC)cc1C)C2=O	21%
Oc1c(CN2CCN(c3ccccn3)CC2)cc(Cl)c2cccnc12	29%
CC(=O)NCCc1c(Cc2ccccc2)[nH]c2ccccc12	19%

====

system: HEK-293T; assay: Multiplex assay against HEK293T; format: toxicity, cell-based; conditions: human, 12 h, 1 µM, compound concentration 1 uM, replicate 1
# label = Condition met if Population Healthy Nuclei (%) < 80% else Condition not met

compound	target.entity	cat
O=C(O)Cc1ccccc1Nc1c(Cl)cccc1Cl	HEK-293T	Condition met
CC[C@H]1OC(=O)[C@H](C)[C@@H](O[C@H]2C[C@@](C)(OC)[C@@H](O)[C@H](C)O2)[C@H](C)[C@@H](O[C@@H]2O[C@H](C)C[C@H](N(C)C)[C@H]2O)[C@@]2(C)CC(C)=C(O2)[C@H](C)[C@@H](O)[C@]1(C)O	HEK-293T	Condition met
Cc1ccc(F)cc1C(=O)Nc1ccc(C(=O)N2Cc3cccn3Cc3ccccc32)c(Cl)c1	HEK-293T	Condition not met
c1cc(OCCCN2CCCCC2)ccc1CN1CCCCC1	HEK-293T	Condition not met
CSc1ccccc1N1CCN(CCCCCC(=O)NC2CCCc3ccccc32)CC1.Cl (stereo not drawn)	HEK-293T	Condition met
